# Experiment Notes: in vitro
# Experimental Setup: human, liver microsomes
# Description: Half life in human liver microsomes at 1 uM up to 60 mins in presence of NADPH
half-life at 1 h, 1 µM overview
Kindly answer with a numeric value in min, unit omitted.

Below: 5 compounds and their reported half-life at 1 h, 1 µM.
[[record]]
compound = "N=C(N)NC(=O)c1nc(-c2ccco2)c(N2CCCCCC2)nc1N"
measurement_label = "half-life at 1 h, 1 µM"
reported_measurement = 50

[[record]]
compound = "N=C(N)NC(=O)c1nc(-c2cncnc2)c(N2CCCCCC2)nc1N"
measurement_label = "half-life at 1 h, 1 µM"
reported_measurement = 86

[[record]]
compound = "N=C(N)NC(=O)c1nc(-c2ccc(C(F)(F)F)cc2)c(N2CCCCCC2)nc1N"
measurement_label = "half-life at 1 h, 1 µM"
reported_measurement = 76

[[record]]
compound = "N=C(N)NC(=O)c1nc(Cl)c(N2CCCCCC2)nc1N [N,N-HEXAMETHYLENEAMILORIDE]"
measurement_label = "half-life at 1 h, 1 µM"
reported_measurement = 73

[[record]]
compound = "N=C(N)NC(=O)c1nc(-c2cc3ccccc3s2)c(N)nc1N"
measurement_label = "half-life at 1 h, 1 µM"
reported_measurement = 68


Req: Item under review: "N=C(N)NC(=O)c1nc(-c2cc3ccccc3o2)c(N2CCCCCC2)nc1N" . Reported half-life at 1 h, 1 µM?
Resp: 68

Req: Requested field: half-life at 1 h, 1 µM. Item: "N=C(N)NC(=O)c1nc(-c2cc3ccccc3o2)c(N)nc1N"
Resp: 33

Req: Request the reported half-life at 1 h, 1 µM associated with "N=C(N)NC(=O)c1nc(-c2ccco2)c(N)nc1N"
Resp: 35

Req: Which half-life at 1 h, 1 µM is listed for "N=C(N)NC(=O)c1nc(-c2cc3ccccc3s2)c(N2CCCCCC2)nc1N" ?
Resp: 62

---

# Experimental Setup: mouse, blood, 2 h; at 1 µg/mL
# Description: Stability in Balb/C mouse whole blood assessed as drug degradation at 1 ug/ml after 2 hrs by LC-MS analysis
Measurement Label: Stabilty

[[record]]
compound = "N=C(N)NC(=O)c1nc(Cl)c(N2CCCCCC2)nc1N [N,N-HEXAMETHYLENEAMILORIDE]"
reported_measurement = "Unstable"

[[record]]
compound = "N=C(N)NC(=O)c1nc(-c2cc3ccccc3o2)c(N)nc1N"
reported_measurement = "Unstable"

[[record]]
compound = "COc1ncc(-c2nc(C(=O)NC(=N)N)c(N)nc2N)cn1"
reported_measurement = "Unstable"

[[record]]
compound = "N=C(N)NC(=O)c1nc(-c2cc3ccccc3o2)c(N2CCCCCC2)nc1N"
reported_measurement = "Unstable"


---

A collection of compounds and their measured solubility kinetic
# Experiment Notes: physchem
# Experimental Setup: PBS, pH 6.5, pH 6.5
Provide the reading as a plain figure in mg/mL.

Known solubility kinetic results, listed for orientation:
[[record]]
smiles_representation = "N=C(N)NC(=O)c1nc(-c2ccco2)c(N2CCCCCC2)nc1N"
measurement_label = "solubility kinetic"
reading_unit = "mg/mL"
reported_measurement = 0.0063

[[record]]
smiles_representation = "N=C(N)NC(=O)c1nc(-c2ccco2)c(N)nc1N"
measurement_label = "solubility kinetic"
reading_unit = "mg/mL"
reported_measurement = 0.025

[[record]]
smiles_representation = "N=C(N)NC(=O)c1nc(-c2cc3ccccc3o2)c(N2CCCCCC2)nc1N"
measurement_label = "solubility kinetic"
reading_unit = "mg/mL"
reported_measurement = 0.0016

[[record]]
smiles_representation = "N=C(N)NC(=O)c1nc(-c2cncnc2)c(N2CCCCCC2)nc1N"
measurement_label = "solubility kinetic"
reading_unit = "mg/mL"
reported_measurement = 0.0125


Please look at the following compound next.
Req: For the compound "COc1ncc(-c2nc(C(=O)NC(=N)N)c(N)nc2N)cn1" , what solubility kinetic is on record?
Resp: 0.0125
